As shown below, each of these compounds has a reported pIC50 value.
Target: human Chk2 kinase (Homo sapiens, UniProt O96017)
Sequence (O96017 whole entry): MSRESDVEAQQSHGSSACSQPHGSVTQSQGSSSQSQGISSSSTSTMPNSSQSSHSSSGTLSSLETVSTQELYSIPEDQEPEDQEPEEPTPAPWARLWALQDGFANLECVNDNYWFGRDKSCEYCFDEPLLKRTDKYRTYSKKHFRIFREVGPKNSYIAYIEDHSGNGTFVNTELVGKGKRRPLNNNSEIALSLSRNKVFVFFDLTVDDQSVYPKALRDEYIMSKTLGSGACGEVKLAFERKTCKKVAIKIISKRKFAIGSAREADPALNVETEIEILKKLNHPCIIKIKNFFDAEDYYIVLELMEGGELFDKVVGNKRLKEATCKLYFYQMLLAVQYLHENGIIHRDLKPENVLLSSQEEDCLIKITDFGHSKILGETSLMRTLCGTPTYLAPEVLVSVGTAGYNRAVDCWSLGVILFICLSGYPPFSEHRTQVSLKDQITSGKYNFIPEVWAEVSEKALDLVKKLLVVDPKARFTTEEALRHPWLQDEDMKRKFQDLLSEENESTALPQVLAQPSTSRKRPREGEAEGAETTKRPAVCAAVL
Test: biochemical
pIC50: −log10 of the molar value.

Below are worked cases with known answers.
>>> print(df.to_string())
                                   compound  recorded_result
0  CCN(CC)C1(c2ccc(-n3cnc(Nc4cnc(C#N)cn4)c3)cc2)CC1 [Example 179]           < 4.00
1  C[C@H]1CN(c2ccc(-n3cnc(Nc4cnc(C#N)cn4)c3)cc2)C[C@@H]1N(C)C [Example 73]     5.00 to 6.00
2  CN1C[C@H]2CN(c3ccc(-n4cnc(Nc5cnc(C#N)cn5)c4)c(F)c3)[C@H]2C1 [Example 81]     5.00 to 6.00

q: Give recorded pIC50. N#Cc1cnc(Nc2cn(-c3ccc(N4CCN(CCC(F)(F)F)CC4)cc3)cn2)cn1 [Example 184]
a: < 4.00

q: Specify pIC50 for CN(C)[C@@H]1CCN(c2ccc(-n3cnc(Nc4cnc(C#N)cn4)c3)nc2C(F)(F)F)C1 [Example 77] and stop.
a: 4.00 to 5.00

q: Find the measured pIC50 of COc1cc(N2CC3(CN(C)C3)C2)ccc1-n1cnc(Nc2cnc(C#N)cn2)c1 [Example 46] and report it.
a: 4.00 to 5.00

q: Write down pIC50 measured for item CN1CCCN(c2cccc(-n3cnc(Nc4cnc(C#N)cn4)c3)c2)CC1 [Example 33]
a: 4.00 to 5.00

----------
Let's look at some compounds and their measured pIC50.
Target: human Chk2 kinase (Homo sapiens)
Assay: biochemical
pIC50: −log10 of the molar value.

                                   compound                    assayed_system  recorded_result
0  CN1CCC12CN(c1ccc(-n3cnc(Nc4cnc(C#N)cn4)c3)cc1)C2  human Chk2 kinase (Homo sapiens)     4.00 to 5.00

q: For the compound CN[C@H]1CN(c2ccc(-n3cnc(Nc4cnc(C#N)cn4)c3)cc2)C[C@H]1F , give its reported pIC50.
a: 5.00 to 6.00

q: Given CN1CCC(Nc2ccc(-n3cnc(Nc4cnc(C#N)cn4)c3)cc2)CC1 , respond with its pIC50.
a: 4.00 to 5.00

q: Specify reported pIC50 for the compound shown: C[C@@H]1C[C@@H](N)CN1c1ccc(-n2cnc(Nc3cnc(C#N)cn3)c2)cc1
a: 5.00 to 6.00

q: Quickly give me recorded pIC50 for N#Cc1cnc(Nc2cn(-c3ccc(N4CCN(C5CC(F)(F)C5)CC4)cc3)cn2)cn1
a: < 4.00

q: For the compound N#Cc1cnc(Nc2cn(-c3cccc(N4CCC(N)C(F)(F)C4)c3)cn2)cn1 (single isomer, unassigned) , give its measured pIC50 value.
a: < 4.00

q: Supply recorded pIC50 for CN1CCC12CCN(c1ccc(-n3cnc(Nc4cnc(C#N)cn4)c3)cc1)CC2 here.
a: 4.00 to 5.00

q: Give the reported pIC50 for this compound. CN1CC[C@H](N(C)c2ccc(-n3cnc(Nc4cnc(C#N)cn4)c3)cc2)C1
a: 4.00 to 5.00

----------
Test: in vitro
Settings: dog, MDCK, pH 7.4
assay.metric: Papp A→B at 60 min, 1 μM (×10⁻⁶ cm/s)

P: N#Cc1cnc(Nc2cn(-c3ccc(N4CCN(CCF)CC4)cc3)cn2)cn1 [Example 183]
Q: N#Cc1cnc(Nc2cn(-c3ccc(N4CCN(CCC(F)(F)F)CC4)cc3)cn2)cn1 [Example 184]
R: COc1cc(C2(F)CCN(C)CC2)ccc1-c1cc(Nc2cnc(C#N)cn2)n[nH]1 [Comparator Ex. 4, reference compound]
q: List the compounds shown above again, sorted by falling Papp A→B at 60 min, 1 μM values. Form entry: ranked labels (order as requested).
a: P, Q, R
(P: 84 ×10⁻⁶ cm/s, Q: 43 ×10⁻⁶ cm/s, R: 19 ×10⁻⁶ cm/s)
